molecular target: Neu5Ac(a2-3)Gal(b1-3)GalNAc; test: glycan array binding signal (z-score within array); higher = stronger binding; details: glycan notation: IUPAC condensed, linker removed
Many of the other results were omitted from the sample, so the strongest signals are more common in it than they were.
metric: glycan array binding signal (z-score)

# binder, glycan array binding signal (z-score)
measured = [
    ("rCnSL-proA (Clitocybe nebularis) (protein) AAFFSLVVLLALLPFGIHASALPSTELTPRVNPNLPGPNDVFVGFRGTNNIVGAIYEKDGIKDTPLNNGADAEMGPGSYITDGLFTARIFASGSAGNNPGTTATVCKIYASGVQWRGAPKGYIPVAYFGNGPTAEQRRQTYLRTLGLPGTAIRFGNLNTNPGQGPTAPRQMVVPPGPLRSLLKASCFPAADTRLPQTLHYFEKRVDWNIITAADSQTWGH", -0.476),
]

# ---- query binder ----
For this binder ( L-Selectin (Homo sapiens), P14151 (protein) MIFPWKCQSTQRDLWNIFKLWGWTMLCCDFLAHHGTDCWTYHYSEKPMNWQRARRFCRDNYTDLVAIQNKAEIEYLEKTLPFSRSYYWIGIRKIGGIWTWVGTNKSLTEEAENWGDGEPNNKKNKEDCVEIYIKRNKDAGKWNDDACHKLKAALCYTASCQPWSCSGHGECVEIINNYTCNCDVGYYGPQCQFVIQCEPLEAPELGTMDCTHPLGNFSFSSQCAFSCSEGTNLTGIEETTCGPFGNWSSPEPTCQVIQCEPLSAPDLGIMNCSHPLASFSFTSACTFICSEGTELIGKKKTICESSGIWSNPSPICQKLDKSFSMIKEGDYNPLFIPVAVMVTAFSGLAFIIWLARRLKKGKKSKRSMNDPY ), measured glycan array binding signal (z-score) is 0.005
